# Tested on: NOMO1
# EXPERIMENT: cell viability relative to DMSO control; higher = less cytotoxic
# ASSAY CONDITIONS: RPMI 5 mM glucose + 10% FBS; 48 h; 0.00234 µM
Listed here: items and their measured cell viability.
Kindly provide the numeric value in % only, without the unit symbol.

These recorded examples may help you get a feel for the data.
>  <COMPOUND>
CCC[C@H]1C[C@H](C(=O)N[C@@H]([C@@H]2O[C@@H](SC)[C@@H](O)[C@@H](O)[C@H]2O)[C@H](C)Cl)N(C)C1

>  <cell viability [%]>
115

$$$$
>  <COMPOUND>
OC[C@H]1OCC(O1)[N@@]2C=CC(N)=NC2=O (stereo partly drawn)

>  <cell viability [%]>
123

$$$$
>  <COMPOUND>
C[C@@]12C[C@@]3(O)O[C@@H](O1)[C@]1(COC(=O)c4ccccc4)[C@H]3C[C@@]12O[C@@H]1O[C@H](CO)[C@@H](O)[C@H](O)[C@H]1O

>  <cell viability [%]>
95.2

$$$$

Now let's try a different one.
Q. May I ask what cell viability has been recorded for CN1CCCN=C1/C=C/c1cccs1.O=C(O)c1cc2ccccc2c(Cc2c(O)c(C(=O)O)cc3ccccc23)c1O ?
A. 121

====

# Tested on: NOMO1
# EXPERIMENT: cell viability relative to DMSO control; higher = less cytotoxic
# ASSAY CONDITIONS: HPLM + 10% dialyzed FBS; 48 h; 0.00234 µM
The label Fulfilled is reserved for cell viability strictly under 90%; Not fulfilled covers values equal to or above it.

Use these answered entries as a reference point.
>  <COMPOUND>
CNC1CCC(N(Cc2cccc(-c3ccncc3)c2)C(=O)c2sc3c(F)ccc(F)c3c2Cl)CC1 (stereo not drawn)

>  <TEST SYSTEM>
NOMO1

>  <LABEL CLASS>
Not fulfilled

$$$$
>  <COMPOUND>
COC1=CC=C(C=C1)C/2=C/OC3=C(C(=CC(=C3)O)O)C2=O

>  <TEST SYSTEM>
NOMO1

>  <LABEL CLASS>
Not fulfilled

$$$$
>  <COMPOUND>
O=C(Nc1ccccc1-c1cn2c(CN3CCNCC3)csc2n1)c1cnc2ccccc2n1

>  <TEST SYSTEM>
NOMO1

>  <LABEL CLASS>
Fulfilled

$$$$

Q. Given the entry OC1CCC(Nc2ncc3nc(Nc4c(F)cc(F)cc4F)n([C@@H]4CCOC4)c3n2)CC1 (stereo partly drawn) , would its reported cell viability be below 90%?
A. Not fulfilled

Q. A record lists CCOC(=O)C/1=C(O)/C(=O)N(CC2=CC=CC=C2)C1 . Is its cell viability below 90%?
A. Not fulfilled

Q. Given Cc1c(NC(=O)OC[C@@H]2COCCN2)cn2ncnc(Nc3ccc4c(cnn4Cc4cccc(F)c4)c3)c12 , is recorded cell viability strictly lower than 90%?
A. Fulfilled

Q. Input O=C(Nc1cc2cc[nH]c2cn1)c1ccccc1 ; condition: cell viability strictly below 90%. Does it hold?
A. Not fulfilled

====

Below, each of the compounds is paired with its reported cell viability value.
# System: SEM cells
# EXPERIMENT: cell viability relative to DMSO control; higher = less cytotoxic
# ASSAY CONDITIONS: RPMI 5 mM glucose + 10% FBS; 48 h; 1.71 µM
# unit: % | format: bare number

Below are worked cases with known answers.
>  <COMPOUND>
C/C=C(/C)C(=O)O[C@H]1C(C)=C[C@]23C(=O)[C@@H](C=C(CO)[C@@H](O)[C@]12O)[C@H]1[C@@H](C[C@H]3C)C1(C)C

>  <MEASURED RESULT>
79.9

$$$$
>  <COMPOUND>
N=C(NCCCCCCNC(=N)NC(=N)Nc1ccc(Cl)cc1)NC(=N)Nc1ccc(Cl)cc1

>  <MEASURED RESULT>
104

$$$$
>  <COMPOUND>
O=C1c2c(O)ccc(O)c2C(=O)c2c(NCCNCCO)ccc(NCCNCCO)c21

>  <MEASURED RESULT>
10.6

$$$$
>  <COMPOUND>
Cc1cnc(NC(=O)Nc2cc(Br)c(C)cc2OC[C@@H]2CNCCO2)cn1

>  <MEASURED RESULT>
33

$$$$
>  <COMPOUND>
CSCC[C@@H](NC(=O)[C@@H](Cc1ccccc1)NC(=O)CNC(=O)CNC(=O)[C@@H](N)Cc1ccc(O)cc1)C(=O)O

>  <MEASURED RESULT>
107

$$$$

Q. Would you mind telling me what cell viability value was observed for FC1=CC=C(SC/2=N/N3\C=N/C(=O)/C(=C3/C=C2)C4=C(Cl)C=CC=C4Cl)C(=C1)F ?
A. 112

Q. What cell viability value was documented for this compound, CC[C@@]1(O)C(=O)OC\C2=C1\C=C3/N(CC4=CC5=C(C=CC(=C5CN(C)C)O)N=C34)C2=O ?
A. 12.2

Q. Would you mind telling me what cell viability value was observed for C/C=C1\C2C=C(C)CC1(N)c1ccc(=O)[nH]c1C2 (configuration not stated) ?
A. 114

Q. Give the measured cell viability of Cn1cnc2c1c(=O)[nH]c(=O)n2C .
A. 94.3

Q. Give its cell viability value. Item: CC(C)C[C@H](NC(=O)[C@H](CCc1ccccc1)NC(=O)CN1CCOCC1)C(=O)N[C@@H](Cc1ccccc1)C(=O)N[C@@H](CC(C)C)C(=O)[C@@]1(C)CO1
A. 4.9

Q. Item COc1cc2c(cc1OC)CC(=O)N(CCCN(C)C[C@H]1Cc3cc(OC)c(OC)cc31)CC2.Cl has what recorded cell viability?
A. 95.7

Q. Name the recorded cell viability for CC(C)C(=O)Nc1ccc([N+](=O)[O-])c(C(F)(F)F)c1 .
A. 128

Q. Look up cell viability for this compound: Cn1c(CNc2ccc(C(=N)N)cc2)nc2cc(C(=O)N(CCC(=O)O)c3ccccn3)ccc21
A. 93.2

Q. # get_value(readout='cell viability', item= O=C(Nc1c(Cl)cncc1Cl)c1ccc(OC(F)F)c(OCC2CC2)c1 )
A. 93.6

Q. I have this compound here, C#C[C@]1(O)CC[C@H]2[C@@H]3CCc4cc(O)ccc4[C@H]3CC[C@@]21C , and I need its recorded cell viability.
A. 104

Q. Value lookup for cell viability; key = FC(F)c1nc2ccccc2n1-c1nc(N2CCOCC2)nc(N2CCOCC2)n1
A. 63.1

Q. Item C=C(C)[C@H]1Cc2c(ccc3c2O[C@@H]2COc4cc(OC)c(OC)cc4[C@@H]2C3=O)O1 has what recorded cell viability?
A. 80.2

====

Catalogue of cell viability readings, one per entry.
# System: P12-Ichikawa
# EXPERIMENT: cell viability relative to DMSO control; higher = less cytotoxic
# ASSAY CONDITIONS: RPMI 5 mM glucose + 10% FBS; 48 h; 1.71 µM
Entry rule: numbers only, all in %.

See these solved cases before continuing.
>  <COMPOUND>
CC(C)NC[C@@H](C(=O)N1CCN(c2ncnc3c2[C@H](C)C[C@H]3O)CC1)c1ccc(Cl)cc1

>  <cell viability / %>
65.2

$$$$
>  <COMPOUND>
COc1ccc(C2CNC(=O)C2)cc1OC1CCCC1 (centres undefined)

>  <cell viability / %>
103

$$$$
>  <COMPOUND>
CNC(=O)c1ccc(N2C(=S)N(c3ccc(C#N)c(C(F)(F)F)c3)C(=O)C23CCC3)cc1F

>  <cell viability / %>
99.6

$$$$

Q. I am curious: what cell viability value has been reported for O=C(O[C@H]1C[C@H]2CC[C@@H](C1)[N+]21CCCC1)C(O)(c1ccccc1)c1ccccc1.[Cl-] ?
A. 106

====

# System: NOMO1
# EXPERIMENT: cell viability relative to DMSO control; higher = less cytotoxic
# ASSAY CONDITIONS: RPMI 5 mM glucose + 10% dialyzed FBS; 48 h; 1.71 µM
RECORDED ENDPOINT: cell viability (%)
Field format: number, assumed %, no unit text.

>  <COMPOUND>
CCN1\C=C(\C(O)=O)C(=O)C2=CC=C(C)N=C12

>  <cell viability (%)>
89.5

$$$$
>  <COMPOUND>
OC1CCC(Nc2ncc3nc(Nc4c(F)cc(F)cc4F)n([C@@H]4CCOC4)c3n2)CC1 (stereo not given in full)

>  <cell viability (%)>
125

$$$$
>  <COMPOUND>
CC(C)C1=C(O)C=C(O)C(=C1)C/2=N/NC(=O)N2C3=CC4=C(C=C3)[N](C)C=C4

>  <cell viability (%)>
19.6

$$$$
>  <COMPOUND>
COc1ccc(-c2ccc3c(N4CCOC[C@@H]4C)nc(N4CCOC[C@@H]4C)nc3n2)cc1CO

>  <cell viability (%)>
70.5

$$$$
>  <COMPOUND>
C[C@@H]\1CC(=O)N\N=C1C2=CC=C(NN=C(C#N)C#N)C=C2

>  <cell viability (%)>
89

$$$$

Q. Dear colleague, I am looking for the recorded cell viability of the following compound: COc1cc2ncnc(Nc3cc(Br)c(O)c(Br)c3)c2cc1OC
A. 112

Q. // query cell viability value for entry C[C@]12CCC(=O)C=C1CC[C@@H]1[C@@H]2CC[C@@]2(C)[C@H]1CC[C@]2(C)O
A. 98.1

Q. Consider the compound C[C@@]12C[C@@]3(O)O[C@@H](O1)[C@]1(COC(=O)c4ccccc4)[C@H]3C[C@@]12O[C@@H]1O[C@H](CO)[C@@H](O)[C@H](O)[C@H]1O and give its measured cell viability.
A. 107

Q. Query (compound): CC(C)=CC[C@@H](O)C/1=C/C(=O)C2=C(O)C=CC(=C2C1=O)O ; field requested: cell viability
A. 70.2

Q. Please look up its cell viability: CC/1=C(/N2[C@H](SC1)[C@H](NC(=O)[C@H](N)\C3=C\C\C=C/C3)C2=O)C(O)=O
A. 121

Q. Record request: cell viability value, item S=P(N1CC1)(N1CC1)N1CC1
A. 98.7

Q. Endpoint output: cell viability of O=C(Nc1c(Cl)cncc1Cl)c1ccc(OC(F)F)c(OCC2CC2)c1 . Value?
A. 114

Q. Requested read-out: cell viability. Entry: Nc1ncnc2c1c(-c1cnc3[nH]ccc3c1)nn2C1CCCC1
A. 81.7

Q. Any idea what its cell viability is? The compound is CC(C)C[C@H](NC(=O)[C@H](CCc1ccccc1)NC(=O)CN1CCOCC1)C(=O)N[C@@H](Cc1ccccc1)C(=O)N[C@@H](CC(C)C)C(=O)[C@@]1(C)CO1
A. 3.98

Q. Recorded cell viability of CC1(C)O[C@@H]2C[C@H]3[C@@H]4CCC5=CC(=O)C=C[C@]5(C)[C@H]4[C@@H](O)C[C@]3(C)[C@]2(C(=O)CO)O1 , please.
A. 109

Hey, just so you know, these numbers are from the supplement of paper PMC11451515.
